Origin of values: ChEMBL document CHEMBL1201862

Reported GI50 values follow for various compounds
# Test system: MCF7
# procedure.text: NCI tumour cell line growth inhibition, 48 h
Active and inactive are the calls of the source. No stated cut-off is given here; in the data, active = GI50 up to about 1.1 µM and inactive = higher.

{"columns": ["compound", "GI50"],
 "data": [
  ["COC(=O)[C@H](Cc1ccccc1)NC(=O)N(CCC#N)CCCCN(CCC#N)C(=O)N[C@@H](Cc1ccccc1)C(=O)OC", "> 100 µM (inactive)"],
  ["O=C(Nc1ccc(S(=O)(=O)/N=c2\\ncccn2C(=O)C(C(F)(F)F)C(F)(F)F)cc1)C(C(F)(F)F)C(F)(F)F", "> 100 µM (inactive)"],
  ["C=CCCCC1SC2=C(CC)CCCN2C1=O (stereo not drawn)", "42.7 µM (inactive)"]
]}
